# subject_of_test: Constitutive 20S proteasome chymotrypsin-like (CT-L) activity (Homo sapiens (Human), UniProt P20618+P28074)
# test: Constitutive 20S proteasome CT-L activity inhibition, fluorogenic substrate succinyl-Leu-Leu-Val-Tyr-AMC
# Type: biochemical
# condition_parameters: form of 20S proteasome not stated; 'below about'
# Method: Inhibition of the 20S proteasome can be determined by methods and assays known in the art, for example, as disclosed by Stein et al., Biochemistry (1996), 35, 3899-3908; by Lightcap et al., Clinical Chemistry, 2000, 46, 673-683; by Kisselev et al., Journal of Biological Chemistry. […] The free fluorophore 7-Amino-4-methylcoumarin (AMC) after cleavage from the substrates is quantified using a fluorometer and activity of CT-L, PGPH and T-L of 20S proteasome is determined. […]
pIC50: −log10 of the molar value.
recorded_endpoint: pIC50

C[C@]1(C(=O)[C@H](Cc2ccccc2)NC(=O)[C@H](Cc2cscn2)NC(=O)[C@H](CCc2ccccc2)NC(=O)c2cc(CN3CCOCC3)on2)CO1 [CX13-605] | > 8.00
CC(C)C[C@H](NC(=O)[C@H](CCc1ccccc1)NC(=O)c1cc(CN2CCOCC2)on1)C(=O)N[C@@H](Cc1ccccc1)C(=O)[C@@]1(C)CO1 [CX13-105] | > 8.30

I am curious: what pIC50 value has been reported for COC[C@H](NC(=O)[C@H](CCc1ccccc1)NC(=O)c1cc(CN2CCOCC2)on1)C(=O)N[C@@H](Cc1ccccc1)C(=O)[C@@]1(C)CO1 [CX13-603] ?
> 7.30
